experiment: small-molecule binders of probe aNOTCH2, primary screen, biochemical, small-molecule microarray, 635/667 nm fluorescence (AID 1121); conditions: higher = more signal;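 also: score merges feature fluorescence read at 667 nm with its signal to noise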
Assign class by composite z-score: not lower than -0.05 means T; lower than -0.05 means F.

(Q) Does the molecule COC(=O)c1c2oc(c1C(=O)OC)C(=O)N[C@@H](C(C)C)Cn1nncc1C1(CCCCC1)NC(=O)N[C@H](CO)CC2 have recorded composite z-score that is -0.05 or more?
(A) F

(Q) Say whether O=C(NCc1ccccc1)[C@@H]1c2ccccc2C(=O)N(Cc2ccccc2Cl)[C@H]1c1ccc(CO)cc1 shows composite z-score of -0.05 or more.
(A) T

(Q) For this molecule, is measured composite z-score -0.05 or higher? COCCCN1C(=O)[C@@]2(Cc3ccccc31)c1ccccc1C(=O)N(Cc1ccccc1Cl)[C@H]2c1ccc(CO)cc1
(A) F

(Q) Can CC(C)NC(=O)[C@@H]1c2ccccc2C(=O)N(Cc2cc(F)cc(C(F)(F)F)c2)[C@H]1c1ccc(CO)cc1 be said to have composite z-score at or above -0.05?
(A) F

(Q) Is it the case that C=CCC(OC(C)=O)[C@@H]1[C@@H](N(Cc2cccc3ccccc23)C(=O)c2cccc3ccccc23)c2cc(OCCCO)ccc2N1C(=O)Cc1ccc(OC)cc1 (stereo partly specified) has composite z-score reaching or exceeding -0.05?
(A) F

(Q) Please tell me: is the molecule COc1ccc(C#Cc2ccc3c(c2)[C@]2(C(=O)N3)[C@H](c3ccc(O)cc3)N3[C@H](c4ccccc4)[C@H](c4ccccc4)OC(=O)[C@H]3[C@@H]2C(=O)N2CCN(c3ncccn3)CC2)cc1 at or over -0.05 in terms of composite z-score?
(A) T

(Q) Say whether COc1ccc(/C=C/C(=O)c2cccc(OCC(=O)OC(C)(C)C)c2)cc1 shows composite z-score of -0.05 or more.
(A) F

(Q) Kindly determine if composite z-score recorded for NCCCCCCNC(=O)[C@@H]1C[C@@H]2C(=O)N[C@@H](Cc3ccccc3)C(=O)N2[C@@H]1c1ccc(O)cc1 is above or exactly -0.05.
(A) F

(Q) Given C=CCOC(=O)[C@H]1[C@@H]2C(=O)O[C@@H](c3ccccc3)[C@@H](c3ccccc3)N2[C@@H](c2ccc(OCCOC(=O)[C@H]3C[C@H]4C(=O)N5CCC[C@H]5C(=O)N4[C@H]3c3cccc(OCCO)c3)cc2)[C@]12C(=O)Nc1ccccc12 , state whether its composite z-score is at least -0.05.
(A) T

(Q) Entry C=C(COC)C(=O)CC[C@@H](OC(=O)c1ccccc1-c1ccccc1C(=O)O)c1cccc(OCCO)c1 : is its composite z-score no less than -0.05?
(A) F

(Q) Is reported composite z-score greater than or equal to -0.05 here: CC(C)(C)OC(=O)CC[C@@]12N=C(c3ccc(OCCCO)cc3)O[C@@H]1c1ccccc1N(Cc1ccccc1)C2=O
(A) T

(Q) Has C=C1C=C(Br)C2(OCCCO2)[C@H]2OC12 (stereo partly specified) a recorded composite z-score greater than or equal to -0.05?
(A) F

(Q) Is composite z-score at least -0.05? Consider CCCCC(=C=CC[C@@H](O)c1ccc(OCCO)cc1)C[C@@H](O)c1cc(Cl)cc(Cl)c1O
(A) T

(Q) Check the entry COCCCNC(=O)[C@@]1(Cc2ccccc2CN=[N+]=[N-])COC(c2ccc(OCCCO)cc2)=N1 : does composite z-score equal or exceed -0.05?
(A) T

(Q) Quick check, composite z-score >= -0.05? CC(C)N1C(=O)c2ccccc2[C@@H](C(=O)NCc2ccccc2)[C@@H]1c1ccc(CO)cc1
(A) F

(Q) Textbook exercise: given the entry C=CC[C@@]1(C(=O)NCc2ccccc2)N=C(c2ccc(OCCCO)cc2)O[C@@H]1c1ccccc1 , state whether its composite z-score is greater than or equal to -0.05.
(A) F

Attribution: PubChem BioAssay
